- System: OVCAR-8 ovarian
- experimental-details: NCI-60 one-dose screen, 48 h (100 = growth as untreated, 0 = no growth, -100 = all killed)
- measurement-parameters: 10 µM unless noted
The panel holds about 83,000 compounds, 20% with a hit somewhere; the sample as a whole holds those more often.
endpoint-label: growth (%)

1) Cc1nc2sc(C(=O)Nc3cccc(Br)c3)c(N)c2cc1C(=O)c1ccc(C(F)(F)F)cc1 | 72.7
2) CCCCCCc1nc2nc(Cl)c(Cl)nc2[nH]1 | 71.9
3) Cc1ccc(C2CC(c3cccc(Nc4ccncc4)c3)=NN2c2cc(Cl)cc(Cl)c2)cc1 (stereo not given) | -36.5
4) C/C(=C(/c1ccccc1)c1ccc(OCC(O)CNCCN2CCOCC2)cc1)c1ccccc1 (stereo not given) | 78.2
5) COc1ccc(C2CC(c3cccc(Nc4ccncc4)c3)=NN2c2ccc(Cl)cc2)cc1 (stereo not given) | -23.4
6) C[C@H]1[C@H](C)CC[C@]2(CO)CC[C@]3(C)C(=CC[C@@H]4[C@@]5(C)CCCNC(C)(C)[C@@H]5CC[C@]43C)[C@H]12 | 9.93
7) O=C(NCCN1CCOCC1)OCc1nc2nc(Cl)nc(N3CCOCC3)c2[nH]1 | 7.4
8) CCOc1ccc(/C=N/Nc2cc(C)nc3ccc(Cl)cc23)cc1 | 45.2
9) N/C(=N\N=C\c1cc2ccccc2s1)N/N=C/c1cc2ccccc2s1 | 107
10) O=S(=O)(c1cccc(NC2=Nc3cccc4cccc2c34)c1)N1CCCC1 | 83.7
11) CCCCCCN(C)Cc1ccc(OCCOc2ccc(CN(C)CCCCCC)cc2)cc1 | 47.7
12) Clc1cc(Cl)cc(N2N=C(c3cccc(Nc4ccncc4)c3)CC2c2ccc(Br)cc2)c1 (stereo not given) | -13.7
13) CC1(C)CN(Cc2ccccc2)CCN1Cc1ccccc1 | 104
14) CCCCCCCCCCCCC1CCC/C=C\CCC(=O)O1 (stereo not given) | 100
15) NS(=O)(=O)c1cccc(NC(=O)C(=O)C2C(=O)Nc3ccccc32)c1 (stereo not given) | 106
16) c1ccc(-c2nn(-c3ccccc3)[n+](-c3cccc4ccccc34)n2)cc1 | -43.5
17) O=c1[nH]nc(-c2ccc(Br)cc2)cc1Cc1ccc(O)cc1 | 92.7
18) Cn1c(COC(=O)NCCn2ccnc2)nc2c(N3CCOCC3)nc(-c3ccccc3)nc21 | -12.9
19) CCCCCCCC(=O)Nc1nc2[nH]c(CN3CCN(Cc4cccc(I)c4)CC3)c(CN3CCN(Cc4cccc(I)c4)CC3)c2c(=O)[nH]1 | -49.6
20) CN1CCN(c2ccc(NC3=C(Cl)C(=O)c4ncccc4C3=O)cc2C#N)CC1 | 26.8
